# System: MV4-11
# assay.name: cells
# condition: Homo sapiens, MV4-11, 96 h
IC50 listing for selected compounds.
result.type: IC50 (nM)

1. CC(=O)N[C@H]1CCC[C@@H]1[C@](C#N)(c1ccccc1)C1CCN(CC2CN(c3ccc(C#N)cc3)C2)CC1 (racemic)    3900
2. O=S(=O)(c1ccc(N2CC(CN3CCC(C4(C5CCCC5)NCCc5ccccc54)CC3)C2)cc1)C1CCCC1 (stereo unspecified)    900
3. O=S(=O)(c1ccncc1)c1ccc(N2CC(CN3CCC(C4(C5CCCC5)CN(CC5COC5)Cc5ccccc54)CC3)C2)cc1 (stereo unspecified)    1570
4. CCN1Cc2ccccc2C(C2CCCC2)(C2CCN(CC3CN(c4ccc(S(=O)(=O)c5ccncc5)cc4)C3)CC2)C1 (stereo unspecified)    840
5. CNC(=O)O[C@H]1CCC[C@@H]1[C@](C#N)(c1ccccc1)C1CCN(CC2CN(c3ccc(C#N)cc3)C2)CC1 (mixture of isomers)    300
6. N#Cc1ccc(N2CC(CN3CCC(C(C#N)(c4ccccc4)C4CCCC4)CC3)C2)cc1 (racemic)    16900
7. CC(=O)O[C@H]1CCC[C@@H]1[C@](C#N)(c1ccccc1)C1CCN(CC2CN(c3ccc(C#N)cc3)C2)CC1 (mixture of isomers)    1700
8. CCS(=O)(=O)c1ccc(N2CC(CN3CCC(C4(C5CCCC5)NCCc5ccccc54)CC3)C2)cc1 (stereo unspecified)    2100
9. O=S(=O)(c1ccncc1)c1ccc(N2CC(CN3CCC(C4(C5CCCC5)CNCc5ccccc54)CC3)C2)cc1 (stereo unspecified)    980
10. N#Cc1ccc(OCCCCN2CCC(C3(C4CCCC4)NCCc4ccccc43)CC2)cc1 (stereo unspecified)    500
11. O=S(=O)(c1ccc(N2CC(CN3CCC(C4(C5CCCC5)NCCc5ccccc54)CC3)C2)cc1)C1CCC1 (stereo unspecified)    1700
